Test system: 519858-162-T-J1-PDC complex spheroid viability;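 further: spheroids exposed to compounds for 7 days; 100% = DMSO vehicle control viability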
Experiment: Anticancer human tumor 519858-162-T-J1-PDC patient-derived colon adenocarcinoma cell line growth inhibition [GQUAD]
Details: second compound 3.16 µM; first compound 1 µM; active compounds read low
This listing pairs compounds with measured viability, T/C.
Return type: number; implicit unit %.

Would you please look over these solved cases?
COMPOUND: COc1cccc2c1C(=O)c1c(O)c3c(c(O)c1C2=O)CC(O)(C(=O)CO)CC3OC1CC(N)C(O)C(C)O1 (centres undefined) + Cc1cnc(CNC(=O)c2c(=O)c3ccc(N4CCCN(C)CC4)nc3n3c2sc2ccccc23)cn1
MEASUREMENT_UNITS: %
viability, T/C: 33.6
//
COMPOUND: CC(=O)O[C@H]1C(=O)[C@@]2(C)[C@H]([C@H](OC(=O)c3ccccc3)[C@]3(O)C[C@H](OC(=O)[C@H](O)[C@@H](NC(=O)c4ccccc4)c4ccccc4)C(C)=C1C3(C)C)[C@]1(OC(C)=O)CO[C@@H]1C[C@@H]2O + Cc1[nH]c2ccc(F)cc2c1-c1nc2c3cccnc3c3ncccc3c2[nH]1
MEASUREMENT_UNITS: %
viability, T/C: 106
//
COMPOUND: C#Cc1c(F)ccc2cc(O)cc(-c3ncc4c(N5CC6CCC(C5)N6)nc(OCC56CCCN5CC(F)C6)nc4c3F)c12 (centres undefined) + CN(C)c1ccc(Nc2c3ccc(NC(=O)CCN4CCCC4)cc3nc3cc(NC(=O)CCN4CCCC4)ccc23)cc1
MEASUREMENT_UNITS: %
viability, T/C: 74.5
//
COMPOUND: COc1cc(C2c3cc4c(cc3C(OC3OC5COC(C)OC5C(O)C3O)C3COC(=O)C23)OCO4)cc(OC)c1O (centres undefined) + Cc1cnc(CNC(=O)c2c(=O)c3ccc(N4CCCN(C)CC4)nc3n3c2sc2ccccc23)cn1
MEASUREMENT_UNITS: %
viability, T/C: 55.7
//
COMPOUND: Nc1ccn(C2OC(CO)C(O)C2(F)F)c(=O)n1 (centres undefined) + Cc1[nH]c2ccc(F)cc2c1-c1nc2c3cccnc3c3ncccc3c2[nH]1
MEASUREMENT_UNITS: %
viability, T/C: 47.2
//
COMPOUND: CC(=O)O[C@H]1C(=O)[C@@]2(C)[C@H]([C@H](OC(=O)c3ccccc3)[C@]3(O)C[C@H](OC(=O)[C@H](O)[C@@H](NC(=O)c4ccccc4)c4ccccc4)C(C)=C1C3(C)C)[C@]1(OC(C)=O)CO[C@@H]1C[C@@H]2O + CN(C)c1ccc(Nc2c3ccc(NC(=O)CCN4CCCC4)cc3nc3cc(NC(=O)CCN4CCCC4)ccc23)cc1
MEASUREMENT_UNITS: %
viability, T/C: 55.3
//
COMPOUND: COc1ncnc(C2CC2)c1-c1ncc2cnn(Cc3ccc(-c4nc(C(F)(F)F)cn4C(C)C)cc3)c2n1 + CN(C)c1ccc(Nc2c3ccc(NC(=O)CCN4CCCC4)cc3nc3cc(NC(=O)CCN4CCCC4)ccc23)cc1
MEASUREMENT_UNITS: %
viability, T/C: 56.6
//
COMPOUND: CC(=O)O[C@H]1C(=O)[C@@]2(C)[C@H]([C@H](OC(=O)c3ccccc3)[C@]3(O)C[C@H](OC(=O)[C@H](O)[C@@H](NC(=O)c4ccccc4)c4ccccc4)C(C)=C1C3(C)C)[C@]1(OC(C)=O)CO[C@@H]1C[C@@H]2O + Cc1cnc(CNC(=O)c2c(=O)c3ccc(N4CCCN(C)CC4)nc3n3c2sc2ccccc23)cn1
MEASUREMENT_UNITS: %
viability, T/C: 66.8

The compound identified as Cc1cccc(N(C)C(=O)C2C(O)CCN2c2nc(C)cc(C(F)(F)F)c2C#N)c1 (centres undefined) + Cc1cnc(CNC(=O)c2c(=O)c3ccc(N4CCCN(C)CC4)nc3n3c2sc2ccccc23)cn1 registered its viability, T/C at 36.2

All figures here come from PubChem BioAssay AID2060507.
